# target.under.test: kinase domain of IRE1 alpha (His-tagged kinase dead construct KR, AA G547-L977, D688N) (Homo sapiens (Human), UniProt O75460, D688N)
# Sequence (O75460 547-977 D688N): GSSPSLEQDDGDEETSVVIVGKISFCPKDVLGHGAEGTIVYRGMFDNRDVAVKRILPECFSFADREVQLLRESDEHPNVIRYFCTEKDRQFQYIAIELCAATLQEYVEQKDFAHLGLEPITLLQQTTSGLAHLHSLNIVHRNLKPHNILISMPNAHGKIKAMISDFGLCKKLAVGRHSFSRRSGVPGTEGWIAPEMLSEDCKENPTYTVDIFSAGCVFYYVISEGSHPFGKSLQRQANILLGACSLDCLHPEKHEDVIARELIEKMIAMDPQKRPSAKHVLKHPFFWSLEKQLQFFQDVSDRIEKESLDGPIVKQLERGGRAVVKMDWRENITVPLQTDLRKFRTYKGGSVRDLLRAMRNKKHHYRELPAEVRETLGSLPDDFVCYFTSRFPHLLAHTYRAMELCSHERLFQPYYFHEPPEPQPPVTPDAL
# assay.protocol: IRE1α TR-FRET competition binding assay
# condition.info: competition with Kinase Tracer 236, 0.1 μM; one hour at room temperature
Counter-ions that a name gives are not always drawn.
Just a reminder that ties go to no: only IC50 strictly below 1 nM counts as yes.

Examples with answers:
# molecule, label.value
measured = [
    ("CC(C)(F)C1CNCC(Nc2nccc(-c3cccnc3Oc3cc(F)c(NS(=O)(=O)Cc4ccccc4)c(F)c3F)n2)C1 (single isomer, unassigned) [Compound 336, hydrochloride]", "yes"),
    ("Cc1ccc(NS(=O)(=O)c2ccccc2Cl)cc1Oc1ncccc1-c1ccnc(N[C@H]2CCCNC2)n1 [Compound 135, hydrochloride]", "no"),
    ("C[C@@]1(F)CNC[C@@H](Nc2nccc(-c3cccnc3Oc3cc(F)c(NS(=O)(=O)CC4CCC4)c(F)c3F)n2)C1", "no"),
    ("COCC1CNCC(Nc2nccc(-c3cccnc3Oc3cc(F)c(NS(=O)(=O)Cc4ccccc4)c(F)c3F)n2)C1 (single isomer, unassigned) [Compound 328]", "no"),
]

Then this molecule:
Prompt: Please determine if O=S(=O)(Cc1ccccc1)Nc1c(F)cc(Oc2ncccc2-c2ccnc(NC3CNCC(C(F)F)C3)n2)c(F)c1F (single isomer, unassigned) [Compound 302] is below 1 nM in terms of IC50.
Response: yes

* * *

Each entry below lists one item and its recorded IC50 value.
# target.under.test: kinase domain of IRE1 alpha (His-tagged kinase dead construct KR, AA G547-L977, D688N) (Homo sapiens (Human), UniProt O75460, D688N)
# assay.protocol: IRE1α TR-FRET competition binding assay
# condition.info: competition with Kinase Tracer 236, 0.1 μM; one hour at room temperature
Where a name gives a salt, the structure may show the parent alone.
State the value, then name its unit.

# molecule, endpoint.value
data = [
    ("O=S(=O)(CC1CCC1)Nc1ccc(Oc2ncccc2-c2ccnc(N[C@H]3CCCNC3)n2)c(F)c1F", "8.3 nM"),
    ("C[C@H]1CNC[C@@H](Nc2nccc(-c3cccnc3Oc3cc(F)c(NS(=O)(=O)Cc4ccccc4)c(F)c3F)n2)C1", "2.7 nM"),
    ("NC(=O)c1ccc(CS(=O)(=O)Nc2c(F)cc(Oc3ncccc3-c3ccnc(N[C@@H]4CNC[C@@H](F)C4)n3)c(F)c2F)c(F)c1", "0.3 nM"),
    ("Cc1c(Oc2ncccc2-c2ccnc(N[C@@H]3CNC[C@@H](F)C3)n2)cc(F)c(NS(=O)(=O)Cc2ccccc2)c1F", "4.3 nM"),
    ("O=S(=O)(Cc1ccccc1)Nc1c(F)cc(Oc2ncccc2-c2ccnc(NC3CNCC4(C3)CC4(F)F)n2)c(F)c1F (single isomer, unassigned) [Compound 299]", "0.38 nM"),
    ("C[C@@]1(F)CNC[C@@H](Nc2nccc(-c3cccnc3Oc3cc(F)c(NS(=O)(=O)Cc4ccccc4)c(F)c3F)n2)C1", "4.7 nM"),
]

Prompt: So what's the measured IC50 for this one? CCN(C)S(=O)(=O)Nc1c(F)cc(Oc2ncccc2-c2ccnc(N[C@@H]3CNC[C@@H](F)C3)n2)c(F)c1F
Response: 1.1 nM

Prompt: So what's the measured IC50 for this one? Cc1ccc(NS(=O)(=O)Cc2ccccc2)cc1Oc1ncccc1-c1ccnc(N[C@H]2CCCNC2)n1 [Compound 136, hydrochloride]
Response: 200 nM

* * *

# target.under.test: kinase domain of IRE1 alpha (His-tagged kinase dead construct KR, AA G547-L977, D688N) (Homo sapiens (Human), UniProt O75460, D688N)
# assay.protocol: IRE1α TR-FRET competition binding assay
# condition.info: competition with Kinase Tracer 236, 0.1 μM; one hour at room temperature
Structures can show the parent of a compound that is named as a salt.
Each entry below lists one item and its recorded IC50 value.
Write down the numeric answer in nM and omit the unit.

# molecule, IC50 / nM
measured = [
    ("Cc1c(NS(=O)(=O)Cc2ccccc2)cccc1Oc1ncccc1-c1ccnc(N[C@H]2CCCNC2)n1 [Compound 140, hydrochloride]", 26),
]

Prompt: So what's the measured IC50 for this one? N#Cc1cc(Cl)ccc1CS(=O)(=O)Nc1c(F)cc(Oc2ncccc2-c2ccnc(N[C@@H]3CNC[C@@H](F)C3)n2)c(F)c1F
Response: 0.2

Prompt: So what's the measured IC50 for this one? N#Cc1ccc(CS(=O)(=O)Nc2ccc(Oc3ncccc3-c3ccnc(N[C@H]4CCCNC4)n3)c(F)c2F)cc1 [Compound 166]
Response: 3.5

Prompt: So what's the measured IC50 for this one? N#Cc1cc(F)ccc1CS(=O)(=O)Nc1c(F)cc(Oc2ncccc2-c2ccnc(N[C@@H]3CNC[C@@H](F)C3)n2)c(F)c1F
Response: 1

Prompt: So what's the measured IC50 for this one? O=S(=O)(Cc1ccccc1)Nc1c(F)cc(Oc2ncccc2-c2ccnc(NC3CNCC(CF)C3)n2)c(F)c1F (single isomer, unassigned) [Compound 278]
Response: 0.78

Prompt: So what's the measured IC50 for this one? CCCS(=O)(=O)Nc1cccc(Oc2ncccc2-c2ccnc(N[C@H]3CCCNC3)n2)c1F [Compound 144, hydrochloride]
Response: 370

* * *

# target.under.test: kinase domain of IRE1 alpha (His-tagged kinase dead construct KR, AA G547-L977, D688N) (Homo sapiens (Human), UniProt O75460, D688N)
# assay.protocol: IRE1α TR-FRET competition binding assay
# condition.info: competition with Kinase Tracer 236, 0.1 μM; one hour at room temperature
# Text: To determine the affinity of compound binding to the kinase domain of IRE1 alpha, a Time Resolved Fluorescence Resonance Energy Transfer (TR-FRET) competition assay was used. […] Binding of the tracer to the IRE1 protein alpha was detected in an Envision instrument (PerkinElmer) equipped with a TRF laser option and a LANCE/Delfia Dual/Bias D400/D630 mirror (Ex 347 nm, 1st Em 665 nm, 2nd Em 615 nm). […]
assay.readout: pIC50
// returns pIC50 (minus log10 of molar concentration), number only

# compound, endpoint.value
data = [
    ("Cc1c(NC(=O)CC2CCCCC2)ccc(Oc2ncccc2-c2ccnc(N[C@H]3CCCNC3)n2)c1C", 6.64),
    ("O=S(=O)(CC1CCC1(F)F)Nc1c(F)cc(Oc2ncccc2-c2ccnc(N[C@@H]3CNC[C@@H](F)C3)n2)c(F)c1F (single isomer, unassigned) [Compound 264]", 8.80),
    ("OC(CNc1cccc(Oc2ncccc2-c2ccnc(N[C@H]3CCCNC3)n2)c1F)C(F)(F)F (single isomer, unassigned) [Compound 201]", 6.68),
    ("O=S(=O)(Cc1ccc(F)cc1F)Nc1c(F)cc(Oc2ncccc2-c2ccnc(N[C@@H]3CNC[C@H](CF)C3)n2)c(F)c1F", 7.46),
    ("O=C1CC[C@H](Nc2nccc(-c3cccnc3Oc3ccc(NS(=O)(=O)Cc4ccccc4)c(F)c3F)n2)CN1", 7.44),
]

Now turn to the next compound.
Prompt: So what's the measured pIC50 for this one? O=S(=O)(Nc1c(F)cc(Oc2ncccc2-c2ccnc(N[C@@H]3CNC[C@@H](F)C3)n2)c(F)c1F)C1CCCC1
Response: 8.92

* * *

Each entry below lists one item and its recorded log10(IC50) value.
# target.under.test: kinase domain of IRE1 alpha (His-tagged kinase dead construct KR, AA G547-L977, D688N) (Homo sapiens (Human), UniProt O75460, D688N)
# assay.protocol: IRE1α TR-FRET competition binding assay
# condition.info: competition with Kinase Tracer 236, 0.1 μM; one hour at room temperature
Structures can show the parent of a compound that is named as a salt.
Log scale reminder: IC50 in nM, then log10 taken.

Solved cases (5 shown):
# compound, log10(IC50)
records = [
    ("O=S(=O)(Cc1ccc(C(F)(F)F)nc1)Nc1c(F)cc(Oc2ncccc2-c2ccnc(N[C@@H]3CNC[C@@H](F)C3)n2)c(F)c1F [Compound 254]", -0.21),
    ("O=S(=O)(Cc1ccccc1)Nc1c(F)cc(Oc2ncccc2-c2ccnc(N[C@H]3CCCNC3)n2)c(F)c1F [Compound 153, hydrochloride]", 0.58),
    ("O=S(=O)(CC12CCC(CC1)CC2)Nc1c(F)cc(Oc2ncccc2-c2ccnc(N[C@@H]3CNC[C@@H](F)C3)n2)c(F)c1F [Compound 377]", -0.10),
    ("O=S(=O)(Cc1ccccc1)Nc1c(F)cc(Oc2ncccc2-c2ccnc(N[C@@H]3CNC[C@@H](F)C3)n2)c(F)c1F [Compound 176]", 0.40),
    ("CCCS(=O)(=O)Nc1ccc(Cl)c(Oc2ncccc2-c2ccnc(N[C@H]3CCCNC3)n2)c1F [Compound 143, hydrochloride]", 1.53),
]

Prompt: So what's the measured log10(IC50) for this one? CC(C)(C#N)CCS(=O)(=O)Nc1ccc(Oc2ncccc2-c2ccnc(N[C@H]3CCCNC3)n2)c(F)c1F [Compound 210]
Response: 1.36

Prompt: So what's the measured log10(IC50) for this one? CC(F)(F)C1CNCC(Nc2nccc(-c3cccnc3Oc3cc(F)c(NS(=O)(=O)Cc4ccccc4)c(F)c3F)n2)C1 (single isomer, unassigned) [Compound 338]
Response: 0.41

Prompt: So what's the measured log10(IC50) for this one? Cc1cc(NS(=O)(=O)Cc2ccccc2)ccc1Oc1ncccc1-c1ccnc(N[C@H]2CCCNC2)n1 [Compound 157]
Response: 1.46

Prompt: So what's the measured log10(IC50) for this one? O=S(=O)(Cc1ccc(F)cc1)Nc1ccc(Oc2ncccc2-c2ccnc(N[C@H]3CCCNC3)n2)c(F)c1F [Compound 235]
Response: 0.60
